- System: SK-OV-3 ovarian
- procedure summary: NCI tumour cell line growth inhibition, 48 h
reported metric: TGI (µM)
Please state the figure in µM; there is no need to write the unit.

CCN(CC)C1CC(O[C@H]2C[C@](O)(C(=O)CO)Cc3c(O)c4c(c(O)c32)C(=O)c2c(OC)cccc2C4=O)OC(C)C1O (some centres undefined) :: 9.62
CCOC(=O)c1ccc(N[C@@H]2c3cc4c(cc3C(c3cc(OC)c(O)c(OC)c3)[C@H]3C(=O)OCC32)OCO4)cc1O (some centres undefined) :: 2.2
Oc1c(N2CCOCC2)cc(-c2cc(N3CCOCC3)c(O)c3ccccc23)c2ccccc12 :: 51.9

Please examine the following record next.
Given the compound COC(=O)[C@@]12C(=O)C=CC(=O)C1C1C(=CC2C)OC2OC3(CCCCC3)OC21 (some centres undefined) , write its reported TGI.
33.9
